system: Influenza A virus; test: Antiviral activity against Influenza (A/PR8/34(H1N1)); type: functional, organism-based; details: A/Puerto Rico/8/1934(H1N1)
PARAMETER: EC50 (µM)
Give the number; µM is assumed, so skip it.

>>> assay_value("O=C(O[C@@H]1Cc2c(O)cc(O)cc2O[C@@H]1c1cc(O)c(O)c(O)c1)c1cc(O)c(O)c(O)c1 [EPIGALOCATECHIN GALLATE]")
0.391

Now look at this entry.
[ask] Param readout= EC50; system= Influenza A virus; entry= `CC(=O)Oc1cc(OC(C)=O)c2c(c1)O[C@H](c1cc(OC(C)=O)c(OC(C)=O)c(OC(C)=O)c1)[C@H](OC(=O)c1cc(OC(C)=O)c(OC(C)=O)c(OC(C)=O)c1)C2` ; returns value.
[reply] 8.49
